Recorded values, source ChEMBL document CHEMBL1140081.

assay: AUC in dog at 10 mg/kg, po; assay type: ADME, organism-based, Canis lupus familiaris; design: dose 10 mg/kg, route oral; conditions: plasma
assay endpoint: AUC (µM·h)
Reply numerically in µM·h, unit not repeated.

Guide cases for AUC, answers given:
smiles entry: CN(C)C(=O)C(=O)NC(C)(C)c1nc(C(=O)NCc2ccc(F)cc2)c(O)c(=O)n1C
AUC (µM·h): 23
--
smiles entry: Cc1nnc(C(=O)NC(C)(C)c2nc(C(=O)NCc3ccc(F)cc3)c(O)c(=O)n2C)o1
AUC (µM·h): 21

# input Given the molecule CN(C)C(=O)C(=O)NC(C)(C)c1nc(C(=O)NCc2ccc(F)cc2)c([O-])c(=O)n1C.[Na+] , write its reported AUC.
# output 47

----------
assay: Volume of distribution in dog at 1 mg/kg, iv; type: ADME, organism-based, Canis lupus familiaris; set-up: dose 1 mg/kg, route intravenous; details: in vivo
assay endpoint: Vd
Answer format: number, then unit.

# input Given the molecule Cc1nnc(C(=O)NC(C)(C)c2nc(C(=O)NCc3ccc(F)cc3)c(O)c(=O)n2C)o1 , write its reported Vd.
# output 0.9 L/kg

----------
test: Terminal half life in Sprague-Dawley rat at 3 mg/kg, iv; type: ADME, organism-based; set-up: dose 3 mg/kg, route intravenous; settings: in vivo, read-out: beta t1/2 (converted)
assay endpoint: half-life
Answer format: number, then unit.

smiles entry: CN(C)C(=O)C(=O)NC(C)(C)c1nc(C(=O)NCc2ccc(F)cc2)c(O)c(=O)n1C
half-life: 6 h

We now examine a further compound.
# input Given the compound Cc1nnc(C(=O)NC(C)(C)c2nc(C(=O)NCc3ccc(F)cc3)c(O)c(=O)n2C)o1 , write its reported half-life.
# output 2 h

----------
experiment: Cmax in po dosed rhesus monkey; type: ADME, organism-based, Macaca mulatta; design: route oral; conditions: in vivo
assay endpoint: Cmax (nM)
Reply numerically in nM, unit not repeated.

# input Given the compound Cc1nnc(C(=O)NC(C)(C)c2nc(C(=O)NCc3ccc(F)cc3)c(O)c(=O)n2C)o1 , write its reported Cmax.
# output 300

----------
assay: Terminal half life in rhesus monkey at 1 mg/kg, iv; type: ADME, organism-based, Macaca mulatta; parameters: dose 1 mg/kg, route intravenous; details: in vivo, read-out: beta t1/2 (converted)
assay endpoint: half-life (min)
Reply numerically in min, unit not repeated.

smiles entry: Cc1nnc(C(=O)NC(C)(C)c2nc(C(=O)NCc3ccc(F)cc3)c(O)c(=O)n2C)o1
experimental result: 240

We now examine a further compound.
# input Given the compound CN(C)C(=O)C(=O)NC(C)(C)c1nc(C(=O)NCc2ccc(F)cc2)c(O)c(=O)n1C , write its reported half-life.
# output 180

----------
test: Plasma concentration in dog at 10 mg/kg, po after 12 hrs; type: ADME, organism-based, Canis lupus familiaris; design: dose 10 mg/kg, route oral
Entries and their concentration at 12 h values follow.

smiles entry: Cc1nnc(C(=O)NC(C)(C)c2nc(C(=O)NCc3ccc(F)cc3)c([O-])c(=O)n2C)o1.[K+]
concentration at 12 h: 350 nM

We now examine a further compound.
# input Given the compound CN(C)C(=O)C(=O)NC(C)(C)c1nc(C(=O)NCc2ccc(F)cc2)c([O-])c(=O)n1C.[Na+] , write its reported concentration at 12 h.
# output 246 nM
